TEST: Antioxidant activity assessed as protection against Cu2+/GSH-induced DNA oxidation at 150 uM up to 180 mins by TBARS method
Assay type: physicochemical
MEASUREMENT_SETUP: 3 h
ASSAY_ENDPOINT: inhibition (INH)

Consider the worked cases shown below.
# inhibition (INH) of COc1cc2cc(C(=O)NCCc3ccc(O)cc3)c(=O)oc2cc1O = Not Active

# inhibition (INH) of COc1cc2cc(C(=O)NCCc3ccccc3)c(=O)oc2cc1O = Not Active

# inhibition (INH) of O=C(NCCc1ccc(O)cc1)c1cc2ccc(O)cc2oc1=O = Not Active

# inhibition (INH) of O=C(NCCc1ccccc1)c1cc2ccccc2oc1=O = Active

# inhibition (INH) of O=C(NCCc1ccccc1)c1cc2ccc(O)cc2oc1=O = Not Active

More entries:
# inhibition (INH) of COc1cc2cc(C(=O)O)c(=O)oc2cc1O = Active

# inhibition (INH) of O=C(O)c1cc2ccccc2oc1=O = Active

# inhibition (INH) of O=C(NCCc1ccc(O)cc1)c1cc2ccccc2oc1=O = Not Active

# inhibition (INH) of O=C(O)c1cc2ccc(O)cc2oc1=O = Active
